- TESTED_TARGET: T1, human CD154 (human, UniProt P29965 113-261, limits assumed)
- T1 construct: also called CD154 antigen; CD40L
- T1 sequence (looked up): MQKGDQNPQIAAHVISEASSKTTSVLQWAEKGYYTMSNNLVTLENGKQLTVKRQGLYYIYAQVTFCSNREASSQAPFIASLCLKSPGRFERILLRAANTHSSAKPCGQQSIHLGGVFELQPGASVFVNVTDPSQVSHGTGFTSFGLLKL
- PROTOCOL_NOTES: SPR, Biacore 3000, 25 C; antibody immobilized, CD154 antigen flowed over; average n = 6
PROPERTY: Fold improvement in KD (compared to IDEC131)
Output should be the measured figure followed by the unit it is expressed in.

Task: Give the reported Fold improvement in KD (compared to IDEC131) for this binder. variant 25, humanized anti-human CD154 antibody derived from IDEC-131 (antibody, V domains shown) VH: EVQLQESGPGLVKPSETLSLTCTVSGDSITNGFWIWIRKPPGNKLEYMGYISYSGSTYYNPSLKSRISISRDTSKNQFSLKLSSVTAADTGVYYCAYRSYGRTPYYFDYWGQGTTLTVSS VL: DIVMTQSPSFLSASVGDRVTITCKASQNLNHAVAWYQQKPGKSPKLLIYSASNRYTGVPDRFSGSGSGTDFTLTISSLQPEDFADYFCQQYDDYPYTFGGGTKLEIK
Output: 3.9 fold

This collection of values is drawn from patent US20180193454A1.
